details: buffer; pH 7.4; 200.0 µM
Is solubility kinetic at least 2 µg/mL? Then yes. If not, no.

These recorded examples may help you get a feel for the data.
{"columns": ["molecule", "category"],
 "data": [
  ["COc1ccccc1CCC(=O)OCC(=O)NCc1ccc(OC)c(OC)c1", "yes"],
  ["CCC(C)c1ccc(NC(=S)N2CCN(S(C)(=O)=O)CC2)cc1 (configuration not stated)", "yes"],
  ["OC(c1nc2ccccc2[nH]1)C(O)c1nc2ccccc2[nH]1 (configuration not stated)", "yes"]
]}

Hello, I need to know if `Cc1ccc([N+](=O)[O-])c(OCCn2cnc3ccccc32)c1` has measured solubility kinetic not below 2 µg/mL. Thanks!
yes

Hello, I need to know if `Cc1cccc2cc(CNC3CCCC3)c(Cl)nc12` has measured solubility kinetic not below 2 µg/mL. Thanks!
yes

Hello, I need to know if `Cc1ccc(-c2ccc(S(=O)(=O)Nc3cccnc3)cc2)cc1` has measured solubility kinetic not below 2 µg/mL. Thanks!
no

Hello, I need to know if `CCOC(=O)c1c(C)noc1-c1ccco1` has measured solubility kinetic not below 2 µg/mL. Thanks!
yes

Hello, I need to know if `Clc1ccc(-c2cn3ccccc3n2)cc1` has measured solubility kinetic not below 2 µg/mL. Thanks!
yes

Hello, I need to know if `O=C(Nc1cccc(C(=O)N2CCCc3ccccc32)c1)c1ccccc1` has measured solubility kinetic not below 2 µg/mL. Thanks!
yes

Hello, I need to know if `Cc1ccccc1Nc1ccc([N+](=O)[O-])cn1` has measured solubility kinetic not below 2 µg/mL. Thanks!
yes

Hello, I need to know if `O=C(CN1CCCCCC1)Nc1ccc(Cl)cn1` has measured solubility kinetic not below 2 µg/mL. Thanks!
yes

Hello, I need to know if `CN(C)c1ccc(Nc2ccc([N+](=O)[O-])cn2)cc1` has measured solubility kinetic not below 2 µg/mL. Thanks!
no

---

Give solubility kinetic for every item shown.
settings: buffer; pH 7.4; 200.0 µM

Study these solved cases before continuing.
{"columns": ["molecule", "solubility kinetic"],
 "data": [
  ["CCOc1ccccc1NC(=O)CCNC(=O)c1ccc(Cl)cc1", "5.6 µg/mL"],
  ["O=c1cnc2ccccc2n1Cc1ccc(Br)cc1", "2.7 µg/mL"],
  ["Cc1ccsc1C(=O)OCc1cc(=O)n2ccsc2n1", "6.3 µg/mL"],
  ["CCOC(=O)[C@@H]1CCN(Cc2ccccc2)C[C@H]1c1ccccc1.Cl", "30.7 µg/mL"],
  ["O=C(CC(c1ccccc1)c1cc(Cl)ccc1O)NCCCN1CCOCC1 (configuration not stated)", "59.2 µg/mL"],
  ["Cc1cc(=O)oc2c(C)c(OCC(=O)NCC3CCC(C(=O)O)CC3)ccc12 (configuration not stated)", "> 58.1 µg/mL"],
  ["O=C(CN1CCCCC1)Nc1ccc(C(F)(F)F)cc1Cl", "2.5 µg/mL"],
  ["CC(C(=O)Nc1ccccn1)c1ccccc1 (configuration not stated)", "> 33.9 µg/mL"],
  ["CC(C)n1cc(NC(=O)COc2ccccc2Cl)cn1", "> 44.1 µg/mL"],
  ["O=C(COC(=O)CCC1CCCC1)NCc1ccc(Cl)cc1", "< 0.7 µg/mL"]
]}

For every item below, please supply its solubility kinetic.
1. Cc1cccc(-n2c(O)c(C=NCCN3CCCCC3)c(=O)[nH]c2=O)c1
2. COc1ccccc1N/C(N)=N/c1nc(C)cc(C)n1

1. > 53.5 µg/mL
2. 38.2 µg/mL

---

settings: buffer; pH 7.4; 200.0 µM
Is solubility kinetic at least 10 µg/mL? Then t. If not, f.

{"columns": ["smiles-string", "category"],
 "data": [
  ["CCOC(=O)C(=CNc1cc(C)ccc1[N+](=O)[O-])C(=O)OCC", "f"]
]}

Hello, I need to know if `COc1ccc(O)c(/C=C(\C#N)C(=O)Nc2ccccn2)c1` has measured solubility kinetic not below 10 µg/mL. Thanks!
t

Hello, I need to know if `O=C(N/N=C/c1cccnc1)c1ccccc1Cl` has measured solubility kinetic not below 10 µg/mL. Thanks!
t

Hello, I need to know if `CCOC(=O)c1cc(C)nc(N2CCCCC2)c1C#N` has measured solubility kinetic not below 10 µg/mL. Thanks!
t

Hello, I need to know if `COc1ccc(C(=O)COC(=O)c2cnc(C)cn2)c(OC)c1` has measured solubility kinetic not below 10 µg/mL. Thanks!
t

Hello, I need to know if `CCC(=NCCc1ccccc1)c1c(O)[nH]c(=O)[nH]c1=O` has measured solubility kinetic not below 10 µg/mL. Thanks!
t

Hello, I need to know if `O=C(NCc1ccc2c(c1)OCO2)Nc1ccc2ccccc2c1` has measured solubility kinetic not below 10 µg/mL. Thanks!
f

Hello, I need to know if `COCCNc1c2c(c(C#N)c3nc4ccccc4n13)CCCC2` has measured solubility kinetic not below 10 µg/mL. Thanks!
t

Hello, I need to know if `CCn1c(SCC(=O)NC2CCCCC2)nnc1-c1ccccc1F` has measured solubility kinetic not below 10 µg/mL. Thanks!
t

Hello, I need to know if `CCOc1ccc(C(=O)N2CCc3ccccc32)cc1OCC` has measured solubility kinetic not below 10 µg/mL. Thanks!
t

Hello, I need to know if `COc1cccc(C(=O)c2c(C)c(CCC#N)n3ccccc23)c1` has measured solubility kinetic not below 10 µg/mL. Thanks!
t

Hello, I need to know if `CCn1c(C)cc(C(=O)COC(=O)c2cccnc2SC)c1C` has measured solubility kinetic not below 10 µg/mL. Thanks!
f

---

details: buffer; pH 7.4; 200.0 µM
Is solubility kinetic at least 6 µg/mL? Then T. If not, F.

{"columns": ["compound", "category"],
 "data": [
  ["S=C(NCCCc1ccccc1)Nc1ccc(Br)cc1", "F"],
  ["O=C(NC1CC1)c1nc(Cn2cc([N+](=O)[O-])cn2)no1", "T"],
  ["Br.CCCN(CCC)C1CCc2cccc(O)c2C1 (stereo not given)", "T"]
]}

Hello, I need to know if COc1ccc(NC(=O)NC2(C(=O)N3CCCC(C)C3)CCCCC2)cc1 (stereo not given) has measured solubility kinetic not below 6 µg/mL. Thanks!
T

Hello, I need to know if `CCOC(=O)c1cc(-c2csc(-c3ccc(C(F)(F)F)cc3)n2)on1` has measured solubility kinetic not below 6 µg/mL. Thanks!
F

---

Give solubility kinetic for every item shown.
conditions: buffer; pH 7.4; 200.0 µM
One number for each entry, in µg/mL.

Study these solved cases before continuing.
{"columns": ["molecule", "solubility kinetic / µg/mL"],
 "data": [
  ["COc1cc(N)c(Cl)cc1C(=O)OCC(=O)Nc1ccc(N2CCOCC2)cc1", 4.9],
  ["O=C(CN1CCOCC1)Nc1cccc([N+](=O)[O-])c1", 36.3],
  ["CC(C)(C)c1ccc(SCCc2ccncc2)cc1", 6.5]
]}

For every item below, please supply its solubility kinetic.
1. CSc1ncccc1C(=O)OCC(=O)N1CCc2ccccc21
2. CCn1c(NCCO)nc2c(c1=O)C(C)(CC)Cc1ccccc1-2 (configuration not stated)
3. CCOC(=O)c1cc(S(=O)(=O)N2CCCC2)cn1C
4. CC(=O)CC(C)(C)Nc1nc2cc([N+](=O)[O-])ccc2o1
5. Cc1coc(C)c1C(=O)Nc1ccc2ccccc2c1
6. Cc1cc(C)c2nc(SCC(=O)Nc3cc(C)on3)c(C)cc2c1

1: 2; 2: 12.8; 3: 22.4; 4: 1.1; 5: 2.5; 6: 0.3

---

details: buffer; pH 7.4; 200.0 µM
Give log10(solubility kinetic) for every item shown.
// stored as log10 of solubility kinetic expressed in µg/mL

{"columns": ["compound", "log10(solubility kinetic)"],
 "data": [
  ["COc1ccc([C@@H](O)[C@@H](N)c2ccccc2)cc1.Cl", 1.62],
  ["CCCc1cc(C(=O)Nc2ccc(F)c(Cl)c2)no1", 0.18],
  ["Cc1ccc(C(=O)OCC(=O)N2C(C)CCCC2C)s1 (stereo not drawn)", 1.45],
  ["O=C(CCCOc1ccc(Cl)cc1Cl)Nc1ccccn1", -0.22],
  ["CCOc1ccccc1NC(=O)c1cccc(NC(=O)C2CCCC2)c1", 1.13],
  ["O=S(=O)(Nc1ccc(F)cc1)c1ccc(S(=O)(=O)N2CCOCC2)cc1", 1.10],
  ["CC(=O)c1c(-c2ccc(Cl)cc2)c2ccccc2[nH]c1=O", -0.05],
  ["OCCN1CCN(Cc2ccc3ccccc3c2)CC1", 1.43],
  ["Cc1cc(SCc2cccc(C(F)(F)F)c2)nc(=O)[nH]1", 1.43],
  ["CCN(c1ccc(NC(=O)CSc2ccc3c(c2)OCCO3)cc1)C(C)C", 0.64]
]}

For every item below, please supply its log10(solubility kinetic).
1. CCNCCNc1ccc([N+](=O)[O-])c2cccnc12
2. CCc1cc2c(=O)c(-c3nc(C)cs3)coc2cc1O
3. CCN(C(=O)c1cccs1)c1nc(-c2ccc(OC)cc2)cs1
4. O=C(OCC(=O)N1CCc2ccccc2C1)c1c(F)cccc1Cl
5. CC(C)(C)c1ccc(C(=O)Nc2ccc(Oc3cccnc3)nc2)cc1

1. 1.56
2. 0.08
3. -0.22
4. 1.50
5. 1.15
